Assay: soluble on expression in E. coli; label from the status in PepcDB or PDB records
parameter_measured: soluble on expression in E. coli

- MMSGAVEPVSVIFPQSTSSGVEVLYQQFSFGRYFNQIAAGVITGLIQAHQHSGHGPLRILEVGGGTGGTTAWLLPELRNVADVRYCFTDISALFSRRAEDKFSEYDFVEYAQFDLQKPASEQGFQAGHYDLIVAANVIHATQHVGQTLHNLRPLLKPGGALLMREITRPMRLFDFVFGPLVLPLHDEQARGGELFLSTAHWQQQCLESGFERLDWLP: not soluble
- MGSDKIHHHHHHMNLSHLKMMITVANLGSLQKTAEQLNRTQSAVSMALKKLEENAGFALFNRDGYRLELTEQGQHFLRQAEEVVRQQQRLQSLATQLKHGAEPLLTLCYDHTCDSKLWVPSIQHIQQQYPTTELHVDGESQMRALKRIDNGSADLALCPWLPLFRQYGDFETLPVAPFELTVVISTALMKEFGRMPQSRQDLLELPMLVPQNLEIGINLDAVLRLPSQQRIRVNEVNTQFELLMAGFGWGIIPKHIALDALEQGKLVEISIPGFVQQVRLEIHLVRSANRTLGPAANAIWESFA: not soluble
- MGSDKIHHHHHHMFNLTKAFLKEVPTNAEVTDFHEVHGGDINKAYSLTDAQGGRYFLKVQPNSVLAFFQHEADGLKLLGQAARVPKVIALGHVGQDQWLLLEYLNATNYGNQYSLGQDLAKIHSITSPNGQFGFDKDFKAGKTSKINTWQSSWYEFFVKQRLNVLRELLINEGKWNDDQNYKKAIEIFQSLMEKHDSRPSLLHGDFWSGNFMFDADSGQPIFIDPDVYYGDPEFDIGITTVFGGFNQDFYVGYQSTKPFQSGAERRLMFYQLYYLMVHAHLFAGSYIQAYRGKLAQIIQQ: not soluble
